- SYSTEM_TESTED: human CCR6 (Homo sapiens)
- Sequence (P51684 whole entry): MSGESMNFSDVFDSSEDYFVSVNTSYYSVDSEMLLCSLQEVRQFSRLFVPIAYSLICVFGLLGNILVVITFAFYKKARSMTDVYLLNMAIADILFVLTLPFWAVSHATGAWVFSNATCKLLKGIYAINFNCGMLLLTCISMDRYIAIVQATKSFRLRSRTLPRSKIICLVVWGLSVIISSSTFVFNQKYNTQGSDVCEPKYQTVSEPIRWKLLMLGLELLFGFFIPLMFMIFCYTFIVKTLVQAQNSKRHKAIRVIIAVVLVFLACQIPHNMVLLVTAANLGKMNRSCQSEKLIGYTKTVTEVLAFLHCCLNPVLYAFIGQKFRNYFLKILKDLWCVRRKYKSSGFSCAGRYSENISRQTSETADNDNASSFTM
- TEST_PROTOCOL: CHO-K1 CCR6 chemotaxis assay towards CCL20
- Assay type: cell-based
- EXPERIMENTAL_PARAMETERS: relative -Log IC50; CHO-K1 cells overexpressing human CCR6; migration towards 100 ng/ml CCL20; 4 h
pIC50: −log10 of the molar value.
Short version: pIC50 at least 7 is t, less is f.

INSERT INTO results (molecule, discrete_label) VALUES
  ('O=S(=O)(c1ccc(-c2ccc3nccn3c2)cc1)[C@H]1CC[C@@H](Nc2ccc(S(F)(F)(F)(F)F)cc2)CC1', 'f'),
  ('O=C1Cc2ccc(-c3ccc(S(=O)(=O)[C@H]4CC[C@H](Nc5ccc(S(F)(F)(F)(F)F)cc5)CC4)cc3)cc2N1', 't'),
  ('NC(=O)c1cnc2ccc(-c3ccc(S(=O)(=O)[C@H]4CC[C@H](Nc5ccc(S(F)(F)(F)(F)F)cc5)CC4)cc3)cn12', 't'),
  ('O=S(=O)(c1ccc(-c2cc3cn[nH]c3cn2)cc1)[C@H]1CC[C@H](Nc2ccc(S(F)(F)(F)(F)F)cc2)CC1', 't'),
  ('CC(C)c1nnc2ccc(-c3ccc(S(=O)(=O)N4CCC(Nc5ccc(S(F)(F)(F)(F)F)cn5)CC4)cc3)cn12', 't'),
  ('CC(C)c1nnc2ccc(-c3ccc(S(=O)(=O)[C@H]4CC[C@H](Nc5ccc(S(F)(F)(F)(F)F)cc5)CC4)cc3)cn12', 't'),
  ('CNC(=O)c1cccc(-c2ccc(S(=N)(=O)[C@H]3CC[C@H](Nc4ccc(S(F)(F)(F)(F)F)cc4)CC3)cc2)c1 (stereo partly drawn)', 'f'),
  ('CNC(=O)c1ccc(-c2ccc(S(=O)(=O)[C@H]3CC[C@H](Nc4ccc(S(F)(F)(F)(F)F)cc4)CC3)cc2)nc1', 'f'),
  ('CN(C)C(=O)c1ccc(-c2ccc(S(=N)(=O)[C@H]3CC[C@H](Nc4ccc(S(F)(F)(F)(F)F)cc4)CC3)cc2)cc1 (stereo partly drawn)', 'f'),
  ('O=C1NCCn2cc(-c3ccc(S(=O)(=O)[C@H]4CC[C@H](Nc5ccc(S(F)(F)(F)(F)F)cc5)CC4)cc3)cc21', 't'),
  ('O=S(=O)(c1ccc(-c2ccc3nccn3c2)cc1)N1CCC(Nc2ccc(S(F)(F)(F)(F)F)cn2)CC1', 't');
